Biological target: MASP-2 CCP2-SP (Homo sapiens (Human), UniProt O00187)
Sequence (O00187 445-686): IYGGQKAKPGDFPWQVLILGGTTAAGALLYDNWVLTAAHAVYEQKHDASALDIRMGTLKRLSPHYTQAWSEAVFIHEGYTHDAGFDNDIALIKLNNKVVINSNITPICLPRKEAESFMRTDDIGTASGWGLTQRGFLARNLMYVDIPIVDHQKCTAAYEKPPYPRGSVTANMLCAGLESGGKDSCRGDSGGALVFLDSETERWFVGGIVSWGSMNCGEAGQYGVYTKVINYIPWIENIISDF
Sequence (O00187 364-432 partner): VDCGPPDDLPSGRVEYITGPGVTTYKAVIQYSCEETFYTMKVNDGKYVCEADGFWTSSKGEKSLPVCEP
Experiment: MASP-2 co-crystallization, X-ray crystallography and structure analysis (H-bonds, van der Waals contacts)
Conditions: Table A7-1; between pharmacophore elements of the bound compound
Excerpt: This example illustrates the preparation of recombinant MASP-2 protein, based on UniProt O00187, human mannan-binding lectin serine protease 2. Expression constructs for human MASP-2 CCP2-SP and CCP2-SP-6HIS were generated for recombinant expression in E. coli cells. […]
Structures can show the parent of a compound that is named as a salt.
Here the recorded Pharmacophore torsion angle a(O1, O2, N2, C2) is given for each entry.
Keep the answer to the number alone.

Sample answers from the record:
- Compound: "C[C@H](NC(=O)[C@H]1C[C@@H](c2ccccc2)CCN1)C(=O)NCc1cc(Cl)ccc1O.Cl [1078_12]"
  Readout number: 114.97
- Compound: "N=C(N)c1ccc(CNC(=O)C(CF)NC(=O)[C@H](N)CCc2ccccc2)cc1 (stereo partly drawn) [compound 1050, Dihydrochloride]"
  Readout number: 66.94
- Compound: "Cc1nc(N)ccc1CNC(=O)[C@H](C)NC(=O)[C@H]1C[C@@H](c2cccc3ccccc23)CCN1.Cl.Cl [1297_4]"
  Readout number: 110.29
- Compound: "C[C@H](NC(=O)[C@H](N)C1Cc2ccccc2C1)C(=O)NCc1ccc2c(N)nccc2c1.Cl.Cl [1088_A]"
  Readout number: 103.40
- Compound: "C[C@H](NC(=O)C1C[C@@H](c2ccccc2)CCN1)C(=O)NCc1ccc(C(=N)N)cc1 (stereo in doubt)"
  Readout number: 150.29
- Compound: "C[C@H](NC(=O)[C@H]1C[C@@H](c2ccccc2)CCN1)C(=O)NCc1cc(Cl)ccc1O.Cl [1078_14]"
  Readout number: 126.74

Consider the compound Cc1nc(N)ccc1CNC(=O)C(C)NC(=O)C1CC(c2cccc3ccccc23)CCN1.Cl.Cl (stereo not drawn) [1297_6] and give its recorded Pharmacophore torsion angle a(O1, O2, N2, C2).
132.97

Consider the compound C[C@H](NC(=O)[C@H]1C[C@@H](c2ccccc2)CCN1)C(=O)NCc1cc(Cl)ccc1O.Cl [1078_13] and give its recorded Pharmacophore torsion angle a(O1, O2, N2, C2).
118.91

Consider the compound C[C@H](NC(=O)[C@@H](CCc1ccccc1)NCc1ccc(C(=O)N2CCOCC2)cc1)C(=O)NCc1ccc(C(=N)N)cc1.Cl.Cl and give its recorded Pharmacophore torsion angle a(O1, O2, N2, C2).
−139.94

---

Biological target: UniProt O00187
Experiment: MASP-2 co-crystallization, X-ray crystallography and structure analysis (H-bonds, van der Waals contacts)
Settings: Table A5-2 pharmacophore distance, S3/S4 region
Structures can show the parent of a compound that is named as a salt.
Mark not fulfilled for d(N2,C4)4 values under 8, and fulfilled for everything at or above.

- Compound: "C[C@H](NC(=O)[C@H](N)CCc1cccc(Cl)c1)C(=O)NCc1ccc(C(=N)N)cc1 [compound 1081]"
  Test target: "UniProt O00187"
  Group: "not fulfilled"
- Compound: "Cc1nc(N)ccc1CNC(=O)[C@H](C)NC(=O)[C@H]1C[C@H](Cc2cc(Cl)cc(Cl)c2)CN1 [compound 1435, Dihydrochloride]"
  Test target: "UniProt O00187"
  Group: "fulfilled"
- Compound: "Cc1nc(N)ccc1CNC(=O)[C@H](C)NC(=O)[C@H]1C[C@H](Cc2ccccc2Br)CN1.O=C(O)C(F)(F)F.O=C(O)C(F)(F)F [1372_A]"
  Test target: "UniProt O00187"
  Group: "not fulfilled"

Hi team, for C[C@H](NC(=O)[C@H](N)CCc1cc(Cl)cc(Cl)c1)C(=O)NCc1ccc(C(=N)N)cc1 [compound 1118] , is the recorded d(N2,C4)4 at or above 8?
not fulfilled
